- assayed_target: Nuclear receptor subfamily 1 group I member 2 (Homo sapiens) (UniProt O75469)
- Sequence (O75469 whole entry, looked up): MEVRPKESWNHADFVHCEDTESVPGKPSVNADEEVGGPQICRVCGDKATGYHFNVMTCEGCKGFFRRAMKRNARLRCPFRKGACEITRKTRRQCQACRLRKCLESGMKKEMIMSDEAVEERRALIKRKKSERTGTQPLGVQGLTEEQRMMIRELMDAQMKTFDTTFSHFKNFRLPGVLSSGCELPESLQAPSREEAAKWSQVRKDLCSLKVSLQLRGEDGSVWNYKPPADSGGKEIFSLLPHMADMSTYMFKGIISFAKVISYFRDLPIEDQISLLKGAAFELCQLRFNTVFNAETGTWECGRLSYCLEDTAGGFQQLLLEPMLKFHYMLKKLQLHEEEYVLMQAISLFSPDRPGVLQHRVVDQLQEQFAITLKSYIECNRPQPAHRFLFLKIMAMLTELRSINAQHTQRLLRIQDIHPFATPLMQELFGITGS
- assay_summary: Human pregnane X receptor (PXR) small molecule agonists, qHTS assay (AID 1346982); further: nearly all actives have a fitted effect of over 35% in size
- condition_details: PXR-Luc HepG2, CYP3A4 luciferase reporter, 24 h; series mostly up to 92.4 µM
Records with an inconclusive call do not appear. Calls of active or inactive are those of the source. The call rests on the fitted dose curve; in most records, active means well fitted activation curve with a large enough effect in the repeat runs; inconclusive means weak or mixed curves; inactive means no such curve, though single readings can be large or run the other way.
Outcome codes: active, inactive

>>> assigned_category("NC(=O)Nc1ccc(Cl)c(Cl)c1")
"active"
>>> assigned_category("CC(COc1ccc(C(C)(C)C)cc1)OS(=O)OCCCl (stereo not given)")
"active"
>>> assigned_category("O=C(/C=C/c1ccccc1)OCCCc1ccccc1")
"inactive"
>>> assigned_category("CSc1ccc(Oc2ccc(S(N)(=O)=O)cc2CN(C)C)cc1C")
"active"
>>> assigned_category("CCCCN(CCCC)CCCOC(=O)c1ccc(N)cc1")
"inactive"

Hello, the source for this data is PubChem BioAssay (Tox21), in case you need it.
